experiment: Safety (body weight, tolerance) in the LU11693 model; format: in vivo, BALB/c nude mice; settings: Group 03, 10 mg/kg tail vein QW×3; day 0
value-type: Body weight (g)
Numbers only, in g.

So what does the record say about Body weight for O=[N+]([O-])c1ccc(C(OP(=O)(N2CC2)N2CC2)C(F)(F)F)cc1Oc1ccc(-c2ccc(F)cc2)c(F)c1 (stereo not shown) [AST] ? 24.3

###

test: Safety (body weight, tolerance) in the HPAF-II model; type: in vivo, Balb/c nude female mice; settings: Group 3, 4 mg/kg i.v. QD×5, 2 days off, 2 weeks off, QD×5; day 10
value-type: Body weight (g)
Answers are plain numbers, in g.

So what does the record say about Body weight for O=[N+]([O-])c1ccc(C(OP(=O)(N2CC2)N2CC2)C(F)(F)F)cc1Oc1ccc(-c2ccc(F)cc2)c(F)c1 (stereo not shown) [AST] ? 24.8

###

assay: Safety (body weight, tolerance) in the HPAF-II model; assay type: in vivo, Balb/c nude female mice; conditions: Group 2, 60 mg/kg i.p. QD×5/week×2 weeks; day 0
value-type: Body weight (g)
Answers are plain numbers, in g.

So what does the record say about Body weight for O=P1(NCCCl)OCCCN1CCCl (stereo not shown) [Ifosfamide, reference compound] ? 23.3

###

test: Safety (body weight, tolerance) in the LU11693 model; format: in vivo, BALB/c nude mice; conditions: Group 03, 10 mg/kg tail vein QW×3; day 4
value-type: Body weight (g)
Answers are plain numbers, in g.

So what does the record say about Body weight for O=[N+]([O-])c1ccc(C(OP(=O)(N2CC2)N2CC2)C(F)(F)F)cc1Oc1ccc(-c2ccc(F)cc2)c(F)c1 (stereo not shown) ? 24.3

###

assay: Safety (body weight, tolerance) in the PA1222 model; assay type: in vivo; settings: Group 03, 10 mg/kg i.v. QW×3; day 17
value-type: Body weight (g)
Give bare numbers, in g.

So what does the record say about Body weight for O=[N+]([O-])c1ccc(C(OP(=O)(N2CC2)N2CC2)C(F)(F)F)cc1Oc1ccc(-c2ccc(F)cc2)c(F)c1 (stereo not shown) ? 23.6

###

experiment: Safety (body weight, tolerance) in the HPAF-II model; type: in vivo, Balb/c nude female mice; details: Group 4, 8 mg/kg i.v. QW×3; day 10
value-type: Body weight (g)
Give bare numbers, in g.

So what does the record say about Body weight for O=[N+]([O-])c1ccc(C(OP(=O)(N2CC2)N2CC2)C(F)(F)F)cc1Oc1ccc(-c2ccc(F)cc2)c(F)c1 (stereo not shown) ? 24.5

###

test: Safety (body weight, tolerance) in the LU11693 model; format: in vivo, BALB/c nude mice; conditions: Group 03, 10 mg/kg tail vein QW×3; day 7
value-type: Body weight (g)
Give bare numbers, in g.

So what does the record say about Body weight for O=[N+]([O-])c1ccc(C(OP(=O)(N2CC2)N2CC2)C(F)(F)F)cc1Oc1ccc(-c2ccc(F)cc2)c(F)c1 (stereo not shown) ? 23.9

###

assay: Safety (body weight, tolerance) in the HPAF-II model; format: in vivo, Balb/c nude female mice; settings: Group 5, 1 mg/kg i.v. QD×5, 2 days off, 2 weeks off, QD×5; day 24
value-type: Body weight (g)
Give bare numbers, in g.

So what does the record say about Body weight for C[C@@H](OP(=O)(N1CC1)N1CC1)c1ccc([N+](=O)[O-])c(Oc2cccc(C(=O)N(C)C)c2)c1 [AST-3424] ? 24.6
